biological target: MMP-13 (Homo sapiens, UniProt P45452); construct: made in house; host or cells: baculovirus / insect cells; assay: In vitro MMP inhibition, Ki determination (fluorogenic substrate II); type: biochemical; conditions: human recombinant enzyme; 4 μM substrate II; room temperature, 1 hr; read-out: MMP-13 Ki
Where a name gives a salt, the structure may show the parent alone.
readout: Ki (nM)

molecule="O=C(NO)C1(S(=O)(=O)N2CCN(c3ccc(-c4ccccc4)c(F)c3)CC2)CCOCC1 [Example 12, Hydrochloride]" tested_system="MMP-13 (Homo sapiens, UniProt P45452)" measurement=0.77

I = O=C(NO)C1(S(=O)(=O)N2CCN(c3ccc(OCC4CC4)c(F)c3)CC2)CCN(C2CC2)CC1 [Example 10, dihydrochloride]
II = CCCCc1ccc(C2CCN(S(=O)(=O)C3(C(=O)NO)CCN(C4CC4)CC3)CC2)nc1 [Example 24, Hydrochloride]
III = CCCCCc1ccc(N2CCN(S(=O)(=O)C3(C(=O)NO)CCN(C(=O)C(F)(F)F)CC3)CC2)cc1 [Example 21, Hydrochloride]
Exercise: Task for the reader: rank each entry by its Ki, from the minimum upward. To answer, arrange all of the labels according to the requested order.
Key: II, I, III
